Reported inhibition at 10 µM values follow for various compounds
MEASURED_ON: FBW7/Skp1 (Homo sapiens, UniProt Q969H0)
Sequence (Q969H0 whole entry, species assumed): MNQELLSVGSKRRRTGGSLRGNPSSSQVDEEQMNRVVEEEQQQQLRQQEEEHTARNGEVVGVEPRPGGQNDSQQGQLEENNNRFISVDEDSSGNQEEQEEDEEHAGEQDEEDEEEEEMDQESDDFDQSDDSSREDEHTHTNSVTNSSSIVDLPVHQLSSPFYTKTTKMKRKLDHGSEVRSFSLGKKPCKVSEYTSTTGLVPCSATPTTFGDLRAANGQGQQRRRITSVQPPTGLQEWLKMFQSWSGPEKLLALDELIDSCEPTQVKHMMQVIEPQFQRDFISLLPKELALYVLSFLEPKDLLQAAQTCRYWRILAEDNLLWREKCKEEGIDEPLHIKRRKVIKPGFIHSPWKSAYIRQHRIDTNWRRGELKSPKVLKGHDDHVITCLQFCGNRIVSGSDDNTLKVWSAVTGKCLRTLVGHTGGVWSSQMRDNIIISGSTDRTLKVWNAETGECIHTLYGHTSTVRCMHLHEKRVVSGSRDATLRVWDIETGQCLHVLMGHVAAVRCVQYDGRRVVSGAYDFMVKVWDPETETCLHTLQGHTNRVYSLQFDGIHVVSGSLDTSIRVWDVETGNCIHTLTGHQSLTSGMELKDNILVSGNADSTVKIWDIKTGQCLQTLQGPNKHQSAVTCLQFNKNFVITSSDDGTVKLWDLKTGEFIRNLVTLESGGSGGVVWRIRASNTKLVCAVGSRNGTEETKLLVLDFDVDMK
Sequence (P63208 whole entry partner, species assumed): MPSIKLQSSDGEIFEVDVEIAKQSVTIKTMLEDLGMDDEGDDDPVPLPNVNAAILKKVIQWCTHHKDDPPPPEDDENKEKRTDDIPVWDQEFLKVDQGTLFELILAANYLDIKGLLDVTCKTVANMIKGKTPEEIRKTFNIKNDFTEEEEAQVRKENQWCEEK
Sequence (Q13616 whole entry partner, species assumed): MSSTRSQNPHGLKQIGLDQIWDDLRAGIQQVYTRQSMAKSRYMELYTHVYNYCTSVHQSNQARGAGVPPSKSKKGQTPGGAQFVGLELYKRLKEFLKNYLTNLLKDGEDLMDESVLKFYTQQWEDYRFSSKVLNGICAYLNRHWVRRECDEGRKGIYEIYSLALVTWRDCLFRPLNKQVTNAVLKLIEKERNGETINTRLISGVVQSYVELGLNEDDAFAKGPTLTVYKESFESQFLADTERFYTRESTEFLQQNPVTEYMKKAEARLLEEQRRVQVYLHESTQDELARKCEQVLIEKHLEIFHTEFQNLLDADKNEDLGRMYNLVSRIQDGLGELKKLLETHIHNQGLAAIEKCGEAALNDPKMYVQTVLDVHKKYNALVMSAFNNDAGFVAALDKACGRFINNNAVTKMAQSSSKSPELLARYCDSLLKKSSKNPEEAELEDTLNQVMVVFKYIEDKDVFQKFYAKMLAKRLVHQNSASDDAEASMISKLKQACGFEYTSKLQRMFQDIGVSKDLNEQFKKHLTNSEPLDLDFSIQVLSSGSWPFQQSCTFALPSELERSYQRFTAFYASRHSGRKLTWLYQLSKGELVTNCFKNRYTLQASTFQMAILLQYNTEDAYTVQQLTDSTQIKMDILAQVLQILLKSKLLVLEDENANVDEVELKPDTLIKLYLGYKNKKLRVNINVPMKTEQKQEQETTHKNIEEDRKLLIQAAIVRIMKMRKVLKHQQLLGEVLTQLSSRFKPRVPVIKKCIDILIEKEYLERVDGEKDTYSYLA
Sequence (P62877 whole entry partner, species assumed): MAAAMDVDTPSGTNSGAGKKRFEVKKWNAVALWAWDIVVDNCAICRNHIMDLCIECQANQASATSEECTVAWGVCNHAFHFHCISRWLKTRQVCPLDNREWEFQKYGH
ASSAY_EXPLANATION: Selectivity assay vs other E3s: Fbw7
Format: biochemical
REPORTED_CONDITIONS: read-out: % Inhibition Fbw7 @ 10 μM
Starred links: 1 amine or outer side, 2 acyl side, 3 side chain; linkers in the order of their positions; H or OH if unused. Non-standard residues stand in square brackets, D forms with d. Residues, ends and D or L forms follow the SMILES beside them. Phe(4-NO2) = N[C@@H](Cc1ccc([N+](=O)[O-])cc1)C(=O)O; Phe(3-F) = N[C@@H](Cc1cccc(F)c1)C(=O)O; Phe(4-F) = N[C@@H](Cc1ccc(F)cc1)C(=O)O; Maleoyl = O=C(/C=C\C(=O)[*:2])[*:1]; Suc = O=C(CCC(=O)[*:2])[*:1]

{"COMPOUND": "NC(=O)[C@H](CCC(=O)O)NC(=O)[C@H](Cc1ccc([N+](=O)[O-])cc1)NC(=O)[C@H](Cc1cccc(F)c1)NC(=O)CNC(=O)[C@H](CCC(=O)O)NC(=O)/C=C\\C(=O)O [UBP008, Mal-EGF(3F)F(4NO2)E-NH2] (Maleoyl-EG[Phe(3-F)][Phe(4-NO2)]E-NH2)", "MEASURED_ON": "FBW7/Skp1 (Homo sapiens, UniProt Q969H0)", "inhibition at 10 µM [%]": 0}
{"COMPOUND": "NC(=O)[C@H](CCC(=O)O)NC(=O)[C@H](Cc1ccc([N+](=O)[O-])cc1)NC(=O)[C@H](Cc1ccc(F)cc1)NC(=O)CNC(=O)[C@H](CCC(=O)O)NC(=O)CCC(=O)O [UBP005, Suc-EGF(4F)F(4NO2)E-NH2] (Suc-EG[Phe(4-F)][Phe(4-NO2)]E-NH2)", "MEASURED_ON": "FBW7/Skp1 (Homo sapiens, UniProt Q969H0)", "inhibition at 10 µM [%]": 0}

----------
MEASURED_ON: FBW7/Skp1 (Homo sapiens, UniProt Q969H0)
ASSAY_EXPLANATION: Selectivity assay vs other E3s: Fbw7
Type: biochemical
REPORTED_CONDITIONS: 100 μM, value in brackets; read-out: % Inhibition Fbw7 @ (100 μM)
Starred links: 1 amine or outer side, 2 acyl side, 3 side chain; linkers in the order of their positions; H or OH if unused. Non-standard residues stand in square brackets, D forms with d. Residues, ends and D or L forms follow the SMILES beside them. Phe(4-NO2) = N[C@@H](Cc1ccc([N+](=O)[O-])cc1)C(=O)O; Phe(3-F) = N[C@@H](Cc1cccc(F)c1)C(=O)O; Phe(4-F) = N[C@@H](Cc1ccc(F)cc1)C(=O)O; Suc = O=C(CCC(=O)[*:2])[*:1]
Reported inhibition at 100 µM values follow for various compounds

{"COMPOUND": "NC(=O)[C@H](CCC(=O)O)NC(=O)[C@H](Cc1ccccc1)NC(=O)[C@H](Cc1ccc(O)cc1)NC(=O)CNC(=O)[C@H](CCC(=O)O)NC(=O)CCC(=O)O [UBP007, Suc-EGYFE-NH2] (Suc-EGYFE-NH2)", "inhibition at 100 µM / %": 0}
{"COMPOUND": "NC(=O)[C@H](CCC(=O)O)NC(=O)[C@H](Cc1ccc([N+](=O)[O-])cc1)NC(=O)[C@H](Cc1ccc(O)cc1)NC(=O)CNC(=O)[C@H](CCC(=O)O)NC(=O)CCC(=O)O [UBP013, Suc-EGYF(4NO2)E-NH2] (Suc-EGY[Phe(4-NO2)]E-NH2)", "inhibition at 100 µM / %": 0}
{"COMPOUND": "NC(=O)[C@H](CCC(=O)O)NC(=O)[C@H](Cc1ccc([N+](=O)[O-])cc1)NC(=O)[C@H](Cc1cccc(F)c1)NC(=O)CNC(=O)[C@H](CCC(=O)O)NC(=O)CCC(=O)O [UBP004, Suc-EGF(3F)F(4NO2)E-NH2] (Suc-EG[Phe(3-F)][Phe(4-NO2)]E-NH2)", "inhibition at 100 µM / %": 2}
{"COMPOUND": "NC(=O)[C@H](CCC(=O)O)NC(=O)[C@H](Cc1ccc([N+](=O)[O-])cc1)NC(=O)[C@H](Cc1ccc(F)cc1)NC(=O)CNC(=O)[C@H](CCC(=O)O)NC(=O)CCC(=O)O [UBP005, Suc-EGF(4F)F(4NO2)E-NH2] (Suc-EG[Phe(4-F)][Phe(4-NO2)]E-NH2)", "inhibition at 100 µM / %": 0}

----------
MEASURED_ON: βTrCP (Homo sapiens)
Sequence (Q9Y297 whole entry, one chain of several): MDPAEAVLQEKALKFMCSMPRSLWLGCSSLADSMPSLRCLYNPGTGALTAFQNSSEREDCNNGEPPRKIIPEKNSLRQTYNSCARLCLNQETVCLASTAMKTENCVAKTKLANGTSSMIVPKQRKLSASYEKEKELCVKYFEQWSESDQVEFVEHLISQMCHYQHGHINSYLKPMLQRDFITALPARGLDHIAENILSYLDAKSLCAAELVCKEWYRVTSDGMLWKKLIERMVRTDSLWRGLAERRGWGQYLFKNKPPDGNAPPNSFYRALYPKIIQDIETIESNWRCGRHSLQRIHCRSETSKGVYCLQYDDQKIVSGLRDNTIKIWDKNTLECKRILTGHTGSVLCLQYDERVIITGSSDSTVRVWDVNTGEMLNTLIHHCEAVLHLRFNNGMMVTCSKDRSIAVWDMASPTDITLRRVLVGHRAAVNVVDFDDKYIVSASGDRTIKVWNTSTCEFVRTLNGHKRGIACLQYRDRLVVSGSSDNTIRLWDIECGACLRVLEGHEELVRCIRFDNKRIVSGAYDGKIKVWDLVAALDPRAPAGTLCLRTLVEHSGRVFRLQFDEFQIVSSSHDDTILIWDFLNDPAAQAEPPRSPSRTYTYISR
ASSAY_EXPLANATION: Fluorescence polarisation (FP) binding assay with fluorescein-tagged IκB peptide
REPORTED_CONDITIONS: Tables 1, 3, 7, 8; 10 nM fluorescein-tagged IκB peptide; read-out: FP Assay IC50/μM
Starred links: 1 amine or outer side, 2 acyl side, 3 side chain; linkers in the order of their positions; H or OH if unused. Non-standard residues stand in square brackets, D forms with d. Residues, ends and D or L forms follow the SMILES beside them. Phe(4-NO2) = N[C@@H](Cc1ccc([N+](=O)[O-])cc1)C(=O)O; Phe(3-F) = N[C@@H](Cc1cccc(F)c1)C(=O)O; 1Nal = N[C@@H](Cc1cccc2ccccc12)C(=O)O; Suc = O=C(CCC(=O)[*:2])[*:1]
Reported IC50 values follow for various molecules

{"MOLECULE": "NC(=O)[C@H](CCC(=O)O)NC(=O)[C@H](Cc1c[nH]cn1)NC(=O)[C@H](Cc1cccc(F)c1)NC(=O)CNC(=O)[C@H](CCC(=O)O)NC(=O)CCC(=O)O [UBP015, Suc-EGF(3F)HE-NH2] (Suc-EG[Phe(3-F)]HE-NH2)", "MEASUREMENT_QUALIFIER": "=", "IC50 (µM)": 0.521}
{"MOLECULE": "NC(=O)CC[C@H](NC(=O)[C@H](Cc1cccc2ccccc12)NC(=O)[C@H](Cc1cccc(F)c1)NC(=O)CNC(=O)[C@H](CCC(=O)O)NC(=O)CCC(=O)O)C(N)=O [Suc-EG-F(3F)-1Nal-Q-NH2] (Suc-EG[Phe(3-F)][1Nal]Q-NH2)", "MEASUREMENT_QUALIFIER": "=", "IC50 (µM)": 7.22}
{"MOLECULE": "NC(=O)CC[C@H](NC(=O)CCC(=O)O)C(=O)NCC(=O)N[C@@H](Cc1ccccc1)C(=O)N[C@@H](Cc1ccccc1)C(=O)N[C@@H](CCC(=O)O)C(N)=O", "MEASUREMENT_QUALIFIER": "=", "IC50 (µM)": 10}
{"MOLECULE": "NC(=O)[C@H](CCC(=O)O)NC(=O)[C@H](Cc1ccc([N+](=O)[O-])cc1)NC(=O)[C@H](Cc1ccc(O)cc1)NC(=O)CNC(=O)[C@@H](N)CCC(=O)O [EGY-F(4NO2)-E-NH2] (H-EGY[Phe(4-NO2)]E-NH2)", "MEASUREMENT_QUALIFIER": ">", "IC50 (µM)": 100}

----------
MEASURED_ON: FBW7/Skp1 (Homo sapiens, UniProt Q969H0)
ASSAY_EXPLANATION: Selectivity assay vs other E3s: Fbw7
Format: biochemical
REPORTED_CONDITIONS: read-out: % Inhibition Fbw7 @ 10 μM
Starred links: 1 amine or outer side, 2 acyl side, 3 side chain; linkers in the order of their positions; H or OH if unused. Non-standard residues stand in square brackets, D forms with d. Residues, ends and D or L forms follow the SMILES beside them. *: point of attachment. Phe(4-NO2) = N[C@@H](Cc1ccc([N+](=O)[O-])cc1)C(=O)O; Phe(3-F) = N[C@@H](Cc1cccc(F)c1)C(=O)O; Phe(2-F) = N[C@@H](Cc1ccccc1F)C(=O)O; Suc = O=C(CCC(=O)[*:2])[*:1]; Tos = Cc1ccc(S(=O)(=O)*)cc1; Ethoxycarbonyl = CCOC(=O)*
PROPERTY_NAME: inhibition at 10 µM

{"MOLECULE": "NC(=O)[C@H](CCC(=O)O)NC(=O)[C@H](Cc1c[nH]c2ccccc12)NC(=O)[C@H](Cc1cccc(F)c1)NC(=O)CNC(=O)[C@H](CCC(=O)O)NC(=O)CCC(=O)O [UBP014, Suc-EGF(3F)WE-NH2] (Suc-EG[Phe(3-F)]WE-NH2)", "RESULT": "0%"}
{"MOLECULE": "CCOC(=O)N[C@H](CC(=O)O)C(=O)N[C@@H](CCC(=O)O)C(=O)NCC(=O)N[C@@H](Cc1cccc(F)c1)C(=O)N[C@@H](Cc1c[nH]c2ccccc12)C(=O)N[C@@H](CCC(=O)O)C(N)=O [UBP023, EtO(CO)-dEGF(3F)WE-NH2] (Ethoxycarbonyl-[dD]EG[Phe(3-F)]WE-NH2)", "RESULT": "0%"}
{"MOLECULE": "NC(=O)[C@H](CCC(=O)O)NC(=O)[C@H](Cc1ccc([N+](=O)[O-])cc1)NC(=O)[C@H](Cc1ccccc1F)NC(=O)CNC(=O)[C@H](CCC(=O)O)NC(=O)CCC(=O)O [UBP003, Suc-EGF(2F)F(4NO2)E-NH2] (Suc-EG[Phe(2-F)][Phe(4-NO2)]E-NH2)", "RESULT": "0%"}
{"MOLECULE": "Cc1ccc(S(=O)(=O)N[C@H](CC(=O)O)C(=O)N[C@@H](CCC(=O)O)C(=O)NCC(=O)N[C@@H](Cc2cccc(F)c2)C(=O)N[C@@H](Cc2c[nH]c3ccccc23)C(=O)N[C@@H](CCC(=O)O)C(N)=O)cc1 [Ts-dEGF(3F)WE-NH2] (Tos-[dD]EG[Phe(3-F)]WE-NH2)", "RESULT": "9%"}

All values here come from patent US20190106460A1.
